- Test system: PC-3
- assay_summary: Inhibitory concentration against PC3 (prostate) cells
- Type: functional
- test_conditions: Homo sapiens
endpoint_label: GI50 (µM)
Give the quantity in µM, number only.

- compound: "C=C/C=C\\[C@H](C)[C@H](OC(N)=O)[C@@H](C)[C@H](O)CC/C=C\\C(C)[C@@H](O)[C@@H](C)/C=C\\CC[C@@H]1OC(=O)[C@H](C)[C@@H](O)[C@@H]1C (some centres undefined)"
  GI50 [µM]: 7.5

Incoming: Under PC-3: GI50 value of CCCCCC(C)(C)[C@H](OC(N)=O)[C@@H](C)[C@H](O)CC/C=C\C(C)[C@@H](O)[C@@H](C)/C=C\CC[C@@H]1O[C@@H](OC)[C@H](C)[C@@H](OCOC)[C@@H]1C (some centres undefined) ?
Outgoing: 38

Incoming: Under PC-3: GI50 value of C=C/C=C\[C@H](C)[C@H](OC(N)=O)[C@@H](C)[C@H](O)CC/C=C\C(C)[C@@H](O)[C@@H](C)/C=C\CC[C@@H]1OC(=O)[C@H](C)[C@@H](OCOC)[C@@H]1C (some centres undefined) ?
Outgoing: 1.8

Incoming: Under PC-3: GI50 value of CC(=O)O[C@H]1C(=O)[C@@]2(C)[C@H]([C@H](OC(=O)c3ccccc3)[C@]3(O)C[C@H](OC(=O)[C@H](O)[C@@H](NC(=O)c4ccccc4)c4ccccc4)C(C)=C1C3(C)C)[C@]1(OC(C)=O)CO[C@@H]1C[C@@H]2O ?
Outgoing: 0.015

Incoming: Under PC-3: GI50 value of C=C/C=C\[C@H](C)[C@H](OC(N)=O)[C@@H](C)[C@H](O)[C@@H](C)C/C(C)=C\[C@H](C)[C@@H](O)[C@@H](C)/C=C\[C@@H](O)C[C@@H]1OC(=O)[C@H](C)[C@@H](O)[C@H]1C [DISERMOLIDE] ?
Outgoing: 3

Incoming: Under PC-3: GI50 value of C=C/C=C\C(C)C(OC(N)=O)[C@@H](C)[C@H](O)[C@@H](C)C/C(C)=C\C(C)[C@@H](O)[C@@H](C)/C=C\C(O)C[C@@H]1OC(=O)[C@H](C)[C@@H](O)[C@H]1C (some centres undefined) ?
Outgoing: 0.067

Incoming: Under PC-3: GI50 value of C=C/C=C\[C@H](C)[C@H](OC(N)=O)[C@@H](C)[C@H](O)CC/C=C\C(C)[C@@H](O)[C@@H](C)/C=C\CC[C@@H]1O[C@@H](OC)[C@H](C)[C@@H](OCOC)[C@@H]1C (some centres undefined) ?
Outgoing: 15
